- target system: F508delCFTR in primary hBE cells with F508del/F508del CFTR mutation (Homo sapiens, UniProt P13569, DEL508-508)
- Construct: cells isolated from CF patients with the homozygous mutation; endogenous in cells
- Sequence (P13569 with tags, fused parts or gaps DEL508-508): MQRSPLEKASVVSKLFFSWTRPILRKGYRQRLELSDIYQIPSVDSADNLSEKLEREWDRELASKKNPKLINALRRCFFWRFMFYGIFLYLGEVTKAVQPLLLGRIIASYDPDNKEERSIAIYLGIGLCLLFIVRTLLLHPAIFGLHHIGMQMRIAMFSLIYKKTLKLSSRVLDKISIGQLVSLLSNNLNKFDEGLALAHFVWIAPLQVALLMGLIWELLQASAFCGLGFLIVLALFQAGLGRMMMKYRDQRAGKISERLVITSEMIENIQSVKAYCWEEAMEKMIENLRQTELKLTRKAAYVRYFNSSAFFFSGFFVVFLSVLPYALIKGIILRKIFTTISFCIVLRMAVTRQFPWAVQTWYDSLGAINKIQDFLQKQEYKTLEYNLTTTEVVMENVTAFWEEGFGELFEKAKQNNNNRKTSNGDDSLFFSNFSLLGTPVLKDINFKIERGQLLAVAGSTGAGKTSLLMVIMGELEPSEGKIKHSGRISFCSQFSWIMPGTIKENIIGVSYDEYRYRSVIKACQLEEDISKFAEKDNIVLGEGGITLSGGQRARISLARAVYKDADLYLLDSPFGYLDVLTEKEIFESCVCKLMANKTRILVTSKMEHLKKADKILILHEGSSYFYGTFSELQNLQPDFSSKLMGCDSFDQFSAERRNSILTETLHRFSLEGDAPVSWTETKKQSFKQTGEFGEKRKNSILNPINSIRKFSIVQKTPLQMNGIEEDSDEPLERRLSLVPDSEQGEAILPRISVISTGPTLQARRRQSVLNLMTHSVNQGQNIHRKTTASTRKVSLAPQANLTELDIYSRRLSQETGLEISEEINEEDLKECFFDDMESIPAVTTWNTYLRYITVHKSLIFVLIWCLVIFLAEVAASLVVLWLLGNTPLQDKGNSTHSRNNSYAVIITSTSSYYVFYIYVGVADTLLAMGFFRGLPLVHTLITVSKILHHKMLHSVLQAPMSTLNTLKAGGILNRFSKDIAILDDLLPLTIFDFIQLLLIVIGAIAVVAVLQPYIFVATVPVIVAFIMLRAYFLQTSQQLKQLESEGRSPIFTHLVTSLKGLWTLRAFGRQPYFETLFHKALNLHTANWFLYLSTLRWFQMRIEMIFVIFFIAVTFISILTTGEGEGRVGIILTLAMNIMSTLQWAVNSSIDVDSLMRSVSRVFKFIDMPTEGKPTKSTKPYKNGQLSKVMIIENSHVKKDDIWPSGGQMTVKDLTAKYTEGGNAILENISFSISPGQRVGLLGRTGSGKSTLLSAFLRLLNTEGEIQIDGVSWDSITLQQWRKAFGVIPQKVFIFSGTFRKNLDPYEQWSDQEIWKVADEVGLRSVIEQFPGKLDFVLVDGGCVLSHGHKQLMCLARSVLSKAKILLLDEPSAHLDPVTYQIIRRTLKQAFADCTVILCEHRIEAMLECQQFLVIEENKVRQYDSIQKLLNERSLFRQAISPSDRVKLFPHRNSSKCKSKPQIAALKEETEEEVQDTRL
- assay name: Transepithelial Clamp Circuit on Human Bronchial Epithelial Cells Conductance Assay (hBE-TECC)
- setup conditions: primary hBE cells F508del/F508del, 18-24 hours at 37° C., equivalent short circuit current, 6 concentrations
pEC50: −log10 of the molar value.
assay endpoint: pEC50

(A) COc1ccc2c(c1)OC(c1ccc(OC[C@@H](O)CO)nn1)C[C@H]2NC(=O)[C@@]1(C)COc2cc3c(cc21)OC(F)(F)O3 (stereo partly drawn) [Example 252]
(B) CC1(C(=O)N[C@@H]2C[C@H](c3cccc(C(=O)O)c3)Oc3ccccc32)COc2cc3c(cc21)OC(F)(F)O3 (stereo partly drawn) [Example 21]
(C) COc1ccc2c(c1)O[C@@H](c1ccc(CO)cn1)C[C@H]2NC(=O)[C@@]1(C)COc2cc3c(cc21)OC(F)(F)O3 [Example 174]
Query: Put the above molecules in order of rising pEC50, beginning with the smallest. Please list each label once, in the requested order.
Reply: B, A, C
(B: 6.33, A: 7.49, C: 7.82)

====

- target system: F508delCFTR cell surface expression in CFBE41o-F508delCFTR-HRP cells (Homo sapiens, UniProt P13569, DEL508-508)
- Construct: fused on or other part: Horseradish peroxidase (HRP) reporter inserted in the fourth exofacial (extracellular) loop of CFTR; expression is doxycycline-inducible
- assay name: Cell Surface Expression-Horse Radish Peroxidase (CSE-HRP) Assay
- Format: cell-based
- setup conditions: maximum at any tested concentration, normalized to on-plate positive control (3 μM)
assay endpoint: Maximum % activity (%)

compound	assay endpoint	unit of measurement	number
COc1ccc2c(c1)O[C@@H]([C@H]1CC[C@H](C(=O)O)CC1)C[C@H]2NC(=O)[C@@]1(C)COc2c1cc1c(c2I)OC(F)(F)O1 [Example 291]	Maximum % activity (%)	%	117
CN1CC2CN(c3cccc(NC(=O)C4(C)COc5cc6c(cc54)OC(F)(F)O6)n3)CC2C1 (centres unmarked) [Example 107]	Maximum % activity (%)	%	136
COc1ccc2c(c1)O[C@@H](c1ccc(C(=O)NC(CO)c3ccccc3)cn1)C[C@H]2NC(=O)[C@@]1(C)COc2cc3c(cc21)OC(F)(F)O3 (some centres unmarked) [Example 216]	Maximum % activity (%)	%	130
COc1ccc2c(c1)O[C@@H](c1ccc(C(=O)N3CCOCC3)cn1)C[C@H]2NC(=O)[C@@]1(C)COc2cc3c(cc21)OC(F)(F)O3 [Example 220]	Maximum % activity (%)	%	112
C[C@]1(C(=O)Nc2cccc(NC[C@H](O)CO)n2)COc2cc3c(cc21)OC(F)(F)O3 [Example 93]	Maximum % activity (%)	%	89
CC(C)(C)OC(=O)N[C@H]1CC[C@H]([C@H]2C[C@@H](NC(=O)[C@@]3(C)COc4cc5c(cc43)OC(F)(F)O5)c3ccc(OC(F)F)cc3O2)CC1 [Example 199]	Maximum % activity (%)	%	149
C[C@]1(C(=O)N[C@H]2C[C@@H](c3ccc(C(=O)O)cc3)O[C@@H](c3ccccc3)C2)COc2cc3c(cc21)OC(F)(F)O3 (single isomer, unassigned) [Example 45]	Maximum % activity (%)	%	111
COc1ccc2c(c1)O[C@@H](c1ccc(C(=O)NC3c4ccccc4CC3O)cn1)C[C@H]2NC(=O)[C@@]1(C)COc2cc3c(cc21)OC(F)(F)O3 (some centres unmarked) [Example 221]	Maximum % activity (%)	%	125
